- tested.on: Sphingosine 1-phosphate receptor 3 (Homo sapiens)
Listing of recorded IC50 by entry.
Just the number please, in nM, no unit attached.

* CCCCCCCCCCCCC/C=C/[C@@H](O)[C@@H](N)COP(=O)(O)O | 0.66

Q: // IC50 lookup, key: CCCCCCCCOc1ccc(NC(=O)[C@@](C)(N)COP(=O)(O)O)cc1
Ans: 5.9

----------
- tested.on: Sphingosine 1-phosphate receptor 3 (Homo sapiens, UniProt Q99500)
- Sequence (Q99500 whole entry): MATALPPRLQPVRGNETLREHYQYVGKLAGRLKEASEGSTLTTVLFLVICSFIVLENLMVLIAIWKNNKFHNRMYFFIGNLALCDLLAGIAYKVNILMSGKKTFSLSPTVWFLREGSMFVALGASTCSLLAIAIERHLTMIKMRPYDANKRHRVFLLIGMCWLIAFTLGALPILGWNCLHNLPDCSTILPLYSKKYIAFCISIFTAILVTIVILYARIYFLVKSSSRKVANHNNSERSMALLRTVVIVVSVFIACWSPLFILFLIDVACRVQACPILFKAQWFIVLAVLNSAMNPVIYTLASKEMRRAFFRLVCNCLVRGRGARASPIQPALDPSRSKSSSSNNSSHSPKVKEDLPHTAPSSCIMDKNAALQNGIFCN
- method.description: Agonist activity at human S1P3 receptor assessed as stimulation of [35S]GTPgammaS binding
metric.name: pEC50
As a rule, pEC50 stands for the negative log10 of the concentration, concentration in M.

Below: 5 molecules and their reported pEC50.
• CCCCCCCCOc1ccc(-c2c[nH]c([C@@](C)(N)COP(=O)(O)O)n2)cc1 = 7.83
• CCCCCCCCOc1ccc(NC(=O)[C@@](C)(N)COP(=O)(O)O)cc1F = 8.00
• CCCCCCCCOc1ccc(NC(=O)[C@@](C)(N)COP(=O)(O)O)c(F)c1 = 8.01
• CCCCCCCCOc1ccc(NC(=O)[C@@](C)(N)COP(=O)(O)O)cc1 = 7.79
• CCCCCCCCCCCCC/C=C/[C@@H](O)[C@@H](N)COP(=O)(O)O = 8.52

Field: next molecule
Q: Report pEC50 for CCCCCCCCOc1ccc(-c2c[nH]c([C@@](C)(N)COP(=O)(O)O)n2)cc1F please.
Ans: 7.97
